Sourced from the supplement of paper PMC7877785

Assay info: self-splicing fitness, log relative to wild type (ln ratio); higher = more splicing; Tetrahymena group I intron in knt gene, E. coli kanamycin selection, DiMSum; sequences stand for … in CUCUCU…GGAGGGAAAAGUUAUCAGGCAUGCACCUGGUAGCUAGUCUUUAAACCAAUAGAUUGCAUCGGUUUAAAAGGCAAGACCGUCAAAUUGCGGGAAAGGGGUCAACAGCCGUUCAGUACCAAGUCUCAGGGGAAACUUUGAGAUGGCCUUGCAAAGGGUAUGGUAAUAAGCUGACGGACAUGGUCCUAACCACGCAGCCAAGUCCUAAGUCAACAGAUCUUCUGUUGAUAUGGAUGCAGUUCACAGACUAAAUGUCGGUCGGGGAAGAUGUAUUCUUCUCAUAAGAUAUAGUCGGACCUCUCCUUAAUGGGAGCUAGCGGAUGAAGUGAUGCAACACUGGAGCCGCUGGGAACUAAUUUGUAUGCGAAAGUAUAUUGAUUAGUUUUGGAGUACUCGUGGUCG;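 further: selection with 25 µg/mL kanamycin versus none on LB agar overnight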
Test conditions: 30 °C
I would appreciate it if you labelled entries t when self-splicing fitness (ln) is -2 or higher, otherwise f.

Prompt: # check: self-splicing fitness (ln) of CCAAAGCAAUAUUACGGCUC is greater than or equal to -2
Completion: f

Prompt: # check: self-splicing fitness (ln) of CUCUAGCAAUAUUACGAACG is greater than or equal to -2
Completion: t

Prompt: # check: self-splicing fitness (ln) of AGGAAGCAAUAUUACGAGGG is greater than or equal to -2
Completion: f

Prompt: # check: self-splicing fitness (ln) of AAAAAGCAAUAUUACGCGUG is greater than or equal to -2
Completion: t

Prompt: # check: self-splicing fitness (ln) of UACUAGCAAUAUUACGCUUG is greater than or equal to -2
Completion: t

Prompt: # check: self-splicing fitness (ln) of CCAGAGCAAUAUUACGCAAC is greater than or equal to -2
Completion: f

Prompt: # check: self-splicing fitness (ln) of CUCCAGCAAUAUUACGCACG is greater than or equal to -2
Completion: t

Prompt: # check: self-splicing fitness (ln) of ACCCAGCAAUAUUACGAGGG is greater than or equal to -2
Completion: f

Prompt: # check: self-splicing fitness (ln) of UCGUAGCAAUAUUACGACUG is greater than or equal to -2
Completion: t

Prompt: # check: self-splicing fitness (ln) of UCGCAGCAAUAUUACGUCGA is greater than or equal to -2
Completion: t

Prompt: # check: self-splicing fitness (ln) of ACACAGCAAUAUUACGACAC is greater than or equal to -2
Completion: t

Prompt: # check: self-splicing fitness (ln) of GUAAAGCAAUAUUACGAUUC is greater than or equal to -2
Completion: t

Prompt: # check: self-splicing fitness (ln) of GAAAAGCAAUAUUACGUGUG is greater than or equal to -2
Completion: f

Prompt: # check: self-splicing fitness (ln) of UGAUAGCAAUAUUACGAUGG is greater than or equal to -2
Completion: t

Prompt: # check: self-splicing fitness (ln) of GCGUAGCAAUAUUACGAACU is greater than or equal to -2
Completion: t

Prompt: # check: self-splicing fitness (ln) of UUUUAGCAAUAUUACGAAUU is greater than or equal to -2
Completion: f

Prompt: # check: self-splicing fitness (ln) of UGCCAGCAAUAUUACGGGUG is greater than or equal to -2
Completion: f

Prompt: # check: self-splicing fitness (ln) of AAGGAGCAAUAUUACGCUCU is greater than or equal to -2
Completion: f

Prompt: # check: self-splicing fitness (ln) of AACCAGCAAUAUUACGCUAA is greater than or equal to -2
Completion: t

Prompt: # check: self-splicing fitness (ln) of UAAAAGCAAUAUUACGCUAC is greater than or equal to -2
Completion: f

Prompt: # check: self-splicing fitness (ln) of AGCAAGCAAUAUUACGCUGC is greater than or equal to -2
Completion: t

Prompt: # check: self-splicing fitness (ln) of AAAUAGCAAUAUUACGAAUG is greater than or equal to -2
Completion: t

Prompt: # check: self-splicing fitness (ln) of AAGAAGCAAUAUUACGAAGA is greater than or equal to -2
Completion: f

Prompt: # check: self-splicing fitness (ln) of GUUAAGCAAUAUUACGUAAC is greater than or equal to -2
Completion: f

Prompt: # check: self-splicing fitness (ln) of CUAUAGCAAUAUUACGUACA is greater than or equal to -2
Completion: f

Prompt: # check: self-splicing fitness (ln) of UCGCAGCAAUAUUACGUGUU is greater than or equal to -2
Completion: f

Prompt: # check: self-splicing fitness (ln) of CCACAGCAAUAUUACGUGGC is greater than or equal to -2
Completion: f

Prompt: # check: self-splicing fitness (ln) of UCCUAGCAAUAUUACGUGCG is greater than or equal to -2
Completion: f

Prompt: # check: self-splicing fitness (ln) of ACGGAGCAAUAUUACGAAGG is greater than or equal to -2
Completion: f

Prompt: # check: self-splicing fitness (ln) of GUUAAGCAAUAUUACGUCCA is greater than or equal to -2
Completion: t

Prompt: # check: self-splicing fitness (ln) of GGCUAGCAAUAUUACGAAUU is greater than or equal to -2
Completion: t

Prompt: # check: self-splicing fitness (ln) of UCAAAGCAAUAUUACGGACA is greater than or equal to -2
Completion: t

Prompt: # check: self-splicing fitness (ln) of CCAAAGCAAUAUUACGCGGC is greater than or equal to -2
Completion: f

Prompt: # check: self-splicing fitness (ln) of GACUAGCAAUAUUACGGGGG is greater than or equal to -2
Completion: f

Prompt: # check: self-splicing fitness (ln) of GCGAAGCAAUAUUACGUGUC is greater than or equal to -2
Completion: f

Prompt: # check: self-splicing fitness (ln) of ACCGAGCAAUAUUACGUGGC is greater than or equal to -2
Completion: f

Prompt: # check: self-splicing fitness (ln) of UCGAAGCAAUAUUACGGUAU is greater than or equal to -2
Completion: f

Prompt: # check: self-splicing fitness (ln) of AAAGAGCAAUAUUACGGUCC is greater than or equal to -2
Completion: f

Prompt: # check: self-splicing fitness (ln) of CUGCAGCAAUAUUACGCUCU is greater than or equal to -2
Completion: f

Prompt: # check: self-splicing fitness (ln) of UGUUAGCAAUAUUACGAAUA is greater than or equal to -2
Completion: t

Prompt: # check: self-splicing fitness (ln) of GGUCAGCAAUAUUACGCCUU is greater than or equal to -2
Completion: t

Prompt: # check: self-splicing fitness (ln) of ACUCAGCAAUAUUACGGAGU is greater than or equal to -2
Completion: f
